Cited source for all entries: paper PMC9463662

Parameter: Kd. Scope: all listed entries.
system name: Zika virus envelope protein (Zika virus, UniProt A0A221S5X1 1-403)
measurement notes: bead-based fluorescence binding assay; protein on streptavidin beads
reported conditions: protein: commercial
Report the figure in nM without appending any unit label.

binder: Zika-07 (Zika-7) aptamer, 5'-FAM (ssDNA) DNA: TGACACCGTACCTGCTCTAGTGCGCACTGAACGATCCTGCGTCAAGTTCAAGGTTGTGAAGCACGCCAAGGGACTAT
measured value: 107

Now for a further binder.
Prompt line: Value lookup for Kd; key = Zika-25 aptamer, 5'-FAM (ssDNA) DNA: TGACACCGTACCTGCTCTAAGCACGCCAAGGGACTATAGGTTGACACCGTACCTGCTCTAAGCACGCCAAGGGACTAT
Response line: 226
